Measured PAM type accompanies every entry in the list below.
EXPERIMENTAL TARGET: human alpha 7-wt nAChR (Homo sapiens, UniProt P36544)
Construct: expressed in transfected cells
Sequence (P36544 23-502): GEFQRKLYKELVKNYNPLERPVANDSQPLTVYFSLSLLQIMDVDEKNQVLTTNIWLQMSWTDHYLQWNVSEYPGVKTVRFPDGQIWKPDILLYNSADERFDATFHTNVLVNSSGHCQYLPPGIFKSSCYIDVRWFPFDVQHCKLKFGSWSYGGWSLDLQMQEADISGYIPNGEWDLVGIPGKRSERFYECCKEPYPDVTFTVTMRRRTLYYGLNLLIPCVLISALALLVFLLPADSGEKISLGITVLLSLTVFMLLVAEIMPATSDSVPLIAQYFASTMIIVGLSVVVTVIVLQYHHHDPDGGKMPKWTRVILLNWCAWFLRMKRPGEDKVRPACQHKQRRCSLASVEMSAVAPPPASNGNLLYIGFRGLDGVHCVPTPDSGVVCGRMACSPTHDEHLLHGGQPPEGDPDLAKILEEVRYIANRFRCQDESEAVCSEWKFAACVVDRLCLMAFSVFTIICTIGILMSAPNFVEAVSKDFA
TEST SUMMARY: Patch-clamp current recording (whole-cell voltage-clamp, GH4C1 cells)
Assay type: cell-based
Parameters: key: Type 0 compounds minimally change the effect size of the current elicited by 1 mM choline.; Type 1 compounds enhance the effect size of the current elicited by 1 mM choline but minimally alter the kinetics of the receptor.; Type 2 compounds enhance the effect size of the current elicited by 1 mM choline while reducing the rate and/or the extent of desensitization.; Type 3 compounds enhance the effect size of the current elicited by 1 mM choline. When tested at higher concentrations up to 10 µM they completely inhibit desensitization; Type 4 compounds allow for an initial desensitization of the receptor followed by a re-opening of the receptor during agonist application
ASSAY CONDITIONS: current elicited by 1 mM choline
PARAMETER: PAM type

- COMPOUND: "Cc1cc(-c2c(F)cc(N3C[C@@H](C)O[C@@H](C)C3)cc2CNC(=O)C2CCOCC2)cc(C)n1 [Compound 86]"
  EXPERIMENTAL TARGET: "human alpha 7-wt nAChR (Homo sapiens, UniProt P36544)"
  PARAMETER: "PAM type"
  TEST VALUE: 3
- COMPOUND: "Cc1cc(-c2c(F)cc(N3CCOC(C)C3)cc2CNC(=O)CC(C)C)cc(C)n1 (stereo not shown) [Compound 116]"
  EXPERIMENTAL TARGET: "human alpha 7-wt nAChR (Homo sapiens, UniProt P36544)"
  PARAMETER: "PAM type"
  TEST VALUE: 3
- COMPOUND: "Cc1cc(-c2c(F)cc(N3C[C@@H](C)O[C@@H](C)C3)c(F)c2CNC(=O)CC2CC2)cc(C)n1 [Compound 124]"
  EXPERIMENTAL TARGET: "human alpha 7-wt nAChR (Homo sapiens, UniProt P36544)"
  PARAMETER: "PAM type"
  TEST VALUE: 2
- COMPOUND: "Cc1cc(-c2ccc(N3C[C@@H](C)O[C@@H](C)C3)c(CNC(=O)c3cc(C)on3)c2)cc(C)n1 [Compound 133]"
  EXPERIMENTAL TARGET: "human alpha 7-wt nAChR (Homo sapiens, UniProt P36544)"
  PARAMETER: "PAM type"
  TEST VALUE: 0
- COMPOUND: "Cc1cc(-c2ccc(N3C[C@@H](C)O[C@@H](C)C3)cc2CNC(=O)C2CC2)cc(C)n1 [Compound 6]"
  EXPERIMENTAL TARGET: "human alpha 7-wt nAChR (Homo sapiens, UniProt P36544)"
  PARAMETER: "PAM type"
  TEST VALUE: 2
- COMPOUND: "Cc1cc(-c2c(F)cc(N3CCOC(C)C3)cc2CNC(=O)C(C)C)cc(C)n1 (stereo not shown) [Compound 113]"
  EXPERIMENTAL TARGET: "human alpha 7-wt nAChR (Homo sapiens, UniProt P36544)"
  PARAMETER: "PAM type"
  TEST VALUE: 2
- COMPOUND: "Cc1cc(-c2ccc(N3C[C@@H](C)O[C@@H](C)C3)cc2CNC(=O)C(C)C)cc(C)n1 [Compound 2]"
  EXPERIMENTAL TARGET: "human alpha 7-wt nAChR (Homo sapiens, UniProt P36544)"
  PARAMETER: "PAM type"
  TEST VALUE: 2
